- System: normal human bronchial epithelial cells (HBE)
- Protocol text: CCK-8 cellular selectivity assay, HBE
- Format: cell-based
- Experimental parameters: IC50 for HBE cell line/IC50 for H1975 cell line
Given measured SI Values (selectivity index), output true if it is greater than or equal to 6 and false if not.

CC(O)CNC(=O)c1ccccc1Nc1nc(Nc2ccc(CN3CCOCC3)cc2)ncc1Cl (centres unmarked) = true
CCC(C)C(CO)NC(=O)c1ccccc1Nc1nc(Nc2ccc(CN3CCOCC3)cc2)ncc1Cl (centres unmarked) = true
CC(CNC(=O)c1ccccc1Nc1nc(Nc2ccc(CN3CCOCC3)cc2)ncc1Cl)Oc1no[n+]([O-])c1S(=O)(=O)c1ccccc1 (centres unmarked) = false
O=C(c1ccccc1Nc1nc(Nc2ccc(CN3CCOCC3)cc2)ncc1Cl)N1CCC(COc2no[n+]([O-])c2S(=O)(=O)c2ccccc2)CC1 = false
O=C(c1ccccc1Nc1nc(Nc2ccc(CN3CCOCC3)cc2)ncc1Cl)N1CCC(CO)CC1 = false

Assess whether reported SI Values (selectivity index) for O=C(NCC(O)CO)c1ccccc1Nc1nc(Nc2ccc(CN3CCOCC3)cc2)ncc1Cl (centres unmarked) sits at 6 or higher.
false

Assess whether reported SI Values (selectivity index) for O=C(NCCCCCCOc1no[n+]([O-])c1S(=O)(=O)c1ccccc1)c1ccccc1Nc1nc(Nc2ccc(CN3CCOCC3)cc2)ncc1Cl sits at 6 or higher.
false

Assess whether reported SI Values (selectivity index) for O=C(NCCOc1no[n+]([O-])c1S(=O)(=O)c1ccccc1)c1ccccc1Nc1nc(Nc2ccc(CN3CCOCC3)cc2)ncc1Cl sits at 6 or higher.
true

Assess whether reported SI Values (selectivity index) for O=C(c1ccccc1Nc1nc(Nc2ccc(CN3CCOCC3)cc2)ncc1Cl)N1CCC(Oc2no[n+]([O-])c2S(=O)(=O)c2ccccc2)CC1 sits at 6 or higher.
false

----------
- Experimental target: FAK kinase (Homo sapiens, UniProt Q05397)
- Sequence (Q05397 393-698 limits assumed): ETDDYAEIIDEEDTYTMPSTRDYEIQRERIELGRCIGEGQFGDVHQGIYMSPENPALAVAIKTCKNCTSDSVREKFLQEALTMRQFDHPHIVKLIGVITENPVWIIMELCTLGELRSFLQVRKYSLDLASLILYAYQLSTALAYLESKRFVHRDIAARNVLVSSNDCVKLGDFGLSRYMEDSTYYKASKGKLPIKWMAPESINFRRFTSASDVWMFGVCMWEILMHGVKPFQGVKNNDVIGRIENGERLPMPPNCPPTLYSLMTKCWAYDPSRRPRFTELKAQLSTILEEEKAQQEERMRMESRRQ
Kindly apply the following: y if IC50 is less than 0.1 µM, n in every other case.

O=C(NCCOc1no[n+]([O-])c1S(=O)(=O)c1ccccc1)c1ccccc1Nc1nc(Nc2ccc(CN3CCOCC3)cc2)ncc1Cl = n

IC50 strictly < 0.1 µM for this compound? CN(CCO)C(=O)c1ccccc1Nc1nc(Nc2ccc(CN3CCOCC3)cc2)ncc1Cl
y

IC50 strictly < 0.1 µM for this compound? CC(CNC(=O)c1ccccc1Nc1nc(Nc2ccc(CN3CCOCC3)cc2)ncc1Cl)Oc1no[n+]([O-])c1S(=O)(=O)c1ccccc1 (stereo not shown)
y

IC50 strictly < 0.1 µM for this compound? CN(CCOc1no[n+]([O-])c1S(=O)(=O)c1ccccc1)C(=O)c1ccccc1Nc1nc(Nc2ccc(CN3CCOCC3)cc2)ncc1Cl
y

IC50 strictly < 0.1 µM for this compound? O=C(NCCCOc1no[n+]([O-])c1S(=O)(=O)c1ccccc1)c1ccccc1Nc1nc(Nc2ccc(CN3CCOCC3)cc2)ncc1Cl
n

IC50 strictly < 0.1 µM for this compound? O=C(NCCCO)c1ccccc1Nc1nc(Nc2ccc(CN3CCOCC3)cc2)ncc1Cl
y

IC50 strictly < 0.1 µM for this compound? O=C(c1ccccc1Nc1nc(Nc2ccc(CN3CCOCC3)cc2)ncc1Cl)N1CCC(COc2no[n+]([O-])c2S(=O)(=O)c2ccccc2)CC1
n

----------
The next entries give measured IC50 for FAK kinase (Homo sapiens).
Numbers only, in nM.

O=C(c1ccccc1Nc1nc(Nc2ccc(CN3CCOCC3)cc2)ncc1Cl)N1CCC(CO)CC1 = 173

Here is the next item to consider.
// recorded IC50 for CCC(C)C(CO)NC(=O)c1ccccc1Nc1nc(Nc2ccc(CN3CCOCC3)cc2)ncc1Cl (stereo not drawn) : 126

----------
- Tested on: normal human bronchial epithelial cells (HBE)
- Protocol text: CCK-8 cellular selectivity assay, HBE
- Assay type: cell-based
- Experimental parameters: Homo sapiens, Epithelial cell; HBE normal cells, CCK-8, 72 h; mean ± SD of three experiments; read-out: Antiproliferative Activity IC50, HBE
- Method: The H1975 human NSCLC cell line was obtained from ATCC. […] A total of 3000 cells of H1975 or HBE and 5000 cells of A431 were seeded for each well into a 96-well plate and cultured in 10% FBS respective growth medium overnight. […] The optical density (OD) was determined at 450 nm with a microplate reader (Thermo Fisher Scientific, Waltham, MA, USA). IC50 values were calculated employing GraphPad Prism version 8.0.
Kindly apply the following: met if IC50 is less than 1000 nM, not met in every other case.

C=CC(=O)Nc1cc(Nc2nccc(-c3cn(C)c4ccccc34)n2)c(OC)cc1N(C)CCN(C)C [Osimertinib, osimertinib, reference compound] = not met
O=C(NCCCO)c1ccccc1Nc1nc(Nc2ccc(CN3CCOCC3)cc2)ncc1Cl = not met
CC(O)CNC(=O)c1ccccc1Nc1nc(Nc2ccc(CN3CCOCC3)cc2)ncc1Cl (stereo not shown) = not met
O=C(c1ccccc1Nc1nc(Nc2ccc(CN3CCOCC3)cc2)ncc1Cl)N1CCC(COc2no[n+]([O-])c2S(=O)(=O)c2ccccc2)CC1 = not met

IC50 strictly < 1000 nM for this compound? O=C(c1ccccc1Nc1nc(Nc2ccc(CN3CCOCC3)cc2)ncc1Cl)N1CCC(Oc2no[n+]([O-])c2S(=O)(=O)c2ccccc2)CC1
met

IC50 strictly < 1000 nM for this compound? CNC(=O)c1ccccc1Nc1nc(Nc2ccc(N3CCOCC3)cc2OC)ncc1Cl [TAE226, reference compound]
not met

IC50 strictly < 1000 nM for this compound? CN(CCOc1no[n+]([O-])c1S(=O)(=O)c1ccccc1)C(=O)c1ccccc1Nc1nc(Nc2ccc(CN3CCOCC3)cc2)ncc1Cl
not met

IC50 strictly < 1000 nM for this compound? O=C(NCCCCCCOc1no[n+]([O-])c1S(=O)(=O)c1ccccc1)c1ccccc1Nc1nc(Nc2ccc(CN3CCOCC3)cc2)ncc1Cl
not met

IC50 strictly < 1000 nM for this compound? O=C(NCCCOc1no[n+]([O-])c1S(=O)(=O)c1ccccc1)c1ccccc1Nc1nc(Nc2ccc(CN3CCOCC3)cc2)ncc1Cl
not met

IC50 strictly < 1000 nM for this compound? O=C(NCCOc1no[n+]([O-])c1S(=O)(=O)c1ccccc1)c1ccccc1Nc1nc(Nc2ccc(CN3CCOCC3)cc2)ncc1Cl
met

----------
- Tested on: normal human bronchial epithelial cells (HBE)
- Protocol text: CCK-8 cellular selectivity assay, HBE
- Format: cell-based
- Experimental parameters: Homo sapiens, Epithelial cell; HBE normal cells, CCK-8, 72 h; mean ± SD of three experiments; read-out: Antiproliferative Activity IC50, HBE
- Method: The H1975 human NSCLC cell line was obtained from ATCC. […] A total of 3000 cells of H1975 or HBE and 5000 cells of A431 were seeded for each well into a 96-well plate and cultured in 10% FBS respective growth medium overnight. […] The optical density (OD) was determined at 450 nm with a microplate reader (Thermo Fisher Scientific, Waltham, MA, USA). IC50 values were calculated employing GraphPad Prism version 8.0.
Kindly apply the following: MET if IC50 is less than 1000 nM, NOT MET in every other case.

Below, 2 compounds whose answers are already recorded.
O=C(NCC(O)CO)c1ccccc1Nc1nc(Nc2ccc(CN3CCOCC3)cc2)ncc1Cl (centres unmarked) [Compound 8h] = MET
O=C(c1ccccc1Nc1nc(Nc2ccc(CN3CCOCC3)cc2)ncc1Cl)N1CCC(CO)CC1 [Compound 8f] = MET

IC50 strictly < 1000 nM for this compound? O=C(NCCCCCCO)c1ccccc1Nc1nc(Nc2ccc(CN3CCOCC3)cc2)ncc1Cl [Compound 8g]
NOT MET

IC50 strictly < 1000 nM for this compound? O=C(NCCO)c1ccccc1Nc1nc(Nc2ccc(CN3CCOCC3)cc2)ncc1Cl [Compound 8a]
NOT MET

----------
- Tested on: normal human bronchial epithelial cells (HBE)
- Protocol text: CCK-8 cellular selectivity assay, HBE
- Type: cell-based
- Experimental parameters: IC50 for HBE cell line/IC50 for H1975 cell line
Assignment: determine reported SI Values (selectivity index) for the given compounds.

Example cases with answers are listed next.
O=C(c1ccccc1Nc1nc(Nc2ccc(CN3CCOCC3)cc2)ncc1Cl)N1CCC(O)CC1 [Compound 8e] = 0.3
O=C(NCCO)c1ccccc1Nc1nc(Nc2ccc(CN3CCOCC3)cc2)ncc1Cl [Compound 8a] = 24

Here is the next item to consider.
// recorded SI Values (selectivity index) for O=C(NCCCOc1no[n+]([O-])c1S(=O)(=O)c1ccccc1)c1ccccc1Nc1nc(Nc2ccc(CN3CCOCC3)cc2)ncc1Cl [Compound 9b] : 13

----------
Assignment: determine reported melting point for the given compounds.

Quick request: melting point for each listed item, please.
1. O=C(c1ccccc1Nc1nc(Nc2ccc(CN3CCOCC3)cc2)ncc1Cl)N1CCC(Oc2no[n+]([O-])c2S(=O)(=O)c2ccccc2)CC1
2. O=C(NCCCOc1no[n+]([O-])c1S(=O)(=O)c1ccccc1)c1ccccc1Nc1nc(Nc2ccc(CN3CCOCC3)cc2)ncc1Cl
3. CC(CNC(=O)c1ccccc1Nc1nc(Nc2ccc(CN3CCOCC3)cc2)ncc1Cl)Oc1no[n+]([O-])c1S(=O)(=O)c1ccccc1 (stereo not shown)
4. O=C(c1ccccc1Nc1nc(Nc2ccc(CN3CCOCC3)cc2)ncc1Cl)N1CCC(COc2no[n+]([O-])c2S(=O)(=O)c2ccccc2)CC1

["130 to 132 °C", "144 to 146 °C", "187 to 189 °C", "109 to 111 °C"]
